System: LCLC-103H
ASSAY_NAME: COMPOUND A In Vitro Assay
Assay type: cell-based, human
CONDITION_DESCRIPTION: Homo sapiens, Lung, TP53 Mutant
VALUE_KIND: IC50 (nM)
Numeric answer only, unit nM assumed.

-- ask Recall and state the measured IC50 for CCOc1cc(C(C)(C)C)ccc1C1=N[C@@](C)(c2ccc(Cl)cc2)[C@@](C)(c2ccc(Cl)cc2)N1C(=O)N1CCN(CCCS(C)(=O)=O)CC1 .
-- reply 700

---

System: SK-MES-1
ASSAY_NAME: COMPOUND A In Vitro Assay
Format: cell-based
CONDITION_DESCRIPTION: Homo sapiens, Lung, TP53 Mutant
Description: To generate an MDM2 antagonist therapy predictive signature, the response of MDM2 antagonist therapy in vitro with gene expression profiling (FIG. 1) is combined. […] The mutational status of nucleic acids from each cell line is determined by exome sequencing. […]
VALUE_KIND: pIC50
Note: pIC50 values are expressed as the negative base-10 logarithm of concentration in M.

-- ask Recall and state the measured pIC50 for CCOc1cc(C(C)(C)C)ccc1C1=N[C@@](C)(c2ccc(Cl)cc2)[C@@](C)(c2ccc(Cl)cc2)N1C(=O)N1CCN(CCCS(C)(=O)=O)CC1 .
-- reply 5.22

---

Tested on: U266B1
ASSAY_NAME: COMPOUND A In Vitro Assay
Type: cell-based
CONDITION_DESCRIPTION: Homo sapiens; U266B1; Lymphocyte B; TP53 Mutant
VALUE_KIND: pIC50
Note: pIC50 values are expressed as the negative base-10 logarithm of concentration in M.

-- ask Please tell me the measured pIC50 for CCOc1cc(C(C)(C)C)ccc1C1=N[C@@](C)(c2ccc(Cl)cc2)[C@@](C)(c2ccc(Cl)cc2)N1C(=O)N1CCN(CCCS(C)(=O)=O)CC1 [COMPOUND A] ; system: U266B1.
-- reply 4.74

---

System: CMK-11-5
ASSAY_NAME: COMPOUND A In Vitro Assay
Format: cell-based
CONDITION_DESCRIPTION: Homo sapiens, Lymphocyte, TP53 Mutant
VALUE_KIND: pIC50
Note: pIC50 values are expressed as the negative base-10 logarithm of concentration in M.

-- ask Recall and state the measured pIC50 for CCOc1cc(C(C)(C)C)ccc1C1=N[C@@](C)(c2ccc(Cl)cc2)[C@@](C)(c2ccc(Cl)cc2)N1C(=O)N1CCN(CCCS(C)(=O)=O)CC1 .
-- reply 5.02

---

System: Daoy
ASSAY_NAME: COMPOUND A In Vitro Assay
Assay type: cell-based
CONDITION_DESCRIPTION: Homo sapiens, Brain, cerebellum, TP53 Mutant
VALUE_KIND: pIC50
Note: pIC50 values are expressed as the negative base-10 logarithm of concentration in M.

-- ask Recall and state the measured pIC50 for CCOc1cc(C(C)(C)C)ccc1C1=N[C@@](C)(c2ccc(Cl)cc2)[C@@](C)(c2ccc(Cl)cc2)N1C(=O)N1CCN(CCCS(C)(=O)=O)CC1 [COMPOUND A] .
-- reply 5.01

---

Tested on: MG-63
ASSAY_NAME: COMPOUND A In Vitro Assay
Assay type: cell-based
CONDITION_DESCRIPTION: Homo sapiens, Bone, TP53 Mutant
VALUE_KIND: pIC50
Note: pIC50 values are expressed as the negative base-10 logarithm of concentration in M.

-- ask Please tell me the measured pIC50 for CCOc1cc(C(C)(C)C)ccc1C1=N[C@@](C)(c2ccc(Cl)cc2)[C@@](C)(c2ccc(Cl)cc2)N1C(=O)N1CCN(CCCS(C)(=O)=O)CC1 ; system: MG-63.
-- reply 4.80

---

Tested on: THP-1
ASSAY_NAME: COMPOUND A In Vitro Assay
Assay type: cell-based
CONDITION_DESCRIPTION: Homo sapiens, Blood, TP53 Mutant
VALUE_KIND: pIC50
Note: pIC50 values are expressed as the negative base-10 logarithm of concentration in M.

-- ask Recall and state the measured pIC50 for CCOc1cc(C(C)(C)C)ccc1C1=N[C@@](C)(c2ccc(Cl)cc2)[C@@](C)(c2ccc(Cl)cc2)N1C(=O)N1CCN(CCCS(C)(=O)=O)CC1 .
-- reply 5.01

---

Test system: NCI-H2009
ASSAY_NAME: COMPOUND A In Vitro Assay
Format: cell-based
CONDITION_DESCRIPTION: Homo sapiens, Lung, TP53 Mutant
VALUE_KIND: pIC50
Note: pIC50 values are expressed as the negative base-10 logarithm of concentration in M.

-- ask Recall and state the measured pIC50 for CCOc1cc(C(C)(C)C)ccc1C1=N[C@@](C)(c2ccc(Cl)cc2)[C@@](C)(c2ccc(Cl)cc2)N1C(=O)N1CCN(CCCS(C)(=O)=O)CC1 .
-- reply 5.00

---

Tested on: NCI-H209
ASSAY_NAME: COMPOUND A In Vitro Assay
Format: cell-based
CONDITION_DESCRIPTION: Homo sapiens, Lung, TP53 Mutant
VALUE_KIND: pIC50
Note: pIC50 values are expressed as the negative base-10 logarithm of concentration in M.

-- ask Recall and state the measured pIC50 for CCOc1cc(C(C)(C)C)ccc1C1=N[C@@](C)(c2ccc(Cl)cc2)[C@@](C)(c2ccc(Cl)cc2)N1C(=O)N1CCN(CCCS(C)(=O)=O)CC1 .
-- reply 4.96

---

Test system: KG-1a
ASSAY_NAME: COMPOUND A In Vitro Assay
Format: cell-based
CONDITION_DESCRIPTION: Homo sapiens, Bone marrow, TP53 Mutant
VALUE_KIND: IC50 (µM)
Numeric answer only, unit µM assumed.

-- ask Recall and state the measured IC50 for CCOc1cc(C(C)(C)C)ccc1C1=N[C@@](C)(c2ccc(Cl)cc2)[C@@](C)(c2ccc(Cl)cc2)N1C(=O)N1CCN(CCCS(C)(=O)=O)CC1 .
-- reply 9

---

Test system: HT-1080
ASSAY_NAME: COMPOUND A In Vitro Assay
Assay type: cell-based
CONDITION_DESCRIPTION: Homo sapiens, HT-1080, HT-1080; Connective tissue; TP53 Wild type
VALUE_KIND: IC50 (nM)
Numeric answer only, unit nM assumed.

-- ask Recall and state the measured IC50 for CCOc1cc(C(C)(C)C)ccc1C1=N[C@@](C)(c2ccc(Cl)cc2)[C@@](C)(c2ccc(Cl)cc2)N1C(=O)N1CCN(CCCS(C)(=O)=O)CC1 .
-- reply 58

---

Tested on: NCI-H716
ASSAY_NAME: COMPOUND A In Vitro Assay
Format: cell-based
CONDITION_DESCRIPTION: Homo sapiens, Intestine, large, caecum, TP53 Mutant
VALUE_KIND: IC50 (µM)
Numeric answer only, unit µM assumed.

-- ask Please tell me the measured IC50 for CCOc1cc(C(C)(C)C)ccc1C1=N[C@@](C)(c2ccc(Cl)cc2)[C@@](C)(c2ccc(Cl)cc2)N1C(=O)N1CCN(CCCS(C)(=O)=O)CC1 [COMPOUND A] ; system: NCI-H716.
-- reply 13

---

System: NOMO-1
ASSAY_NAME: COMPOUND A In Vitro Assay
Assay type: cell-based
CONDITION_DESCRIPTION: Homo sapiens, Bone marrow, TP53 Mutant
VALUE_KIND: IC50
Entry format: amount then unit.

-- ask Recall and state the measured IC50 for CCOc1cc(C(C)(C)C)ccc1C1=N[C@@](C)(c2ccc(Cl)cc2)[C@@](C)(c2ccc(Cl)cc2)N1C(=O)N1CCN(CCCS(C)(=O)=O)CC1 .
-- reply 6.3 µM

---

System: SK-ES-1
ASSAY_NAME: COMPOUND A In Vitro Assay
Format: cell-based
CONDITION_DESCRIPTION: Homo sapiens, SK-ES1, Bone, TP53 Mutant
VALUE_KIND: pIC50
Note: pIC50 values are expressed as the negative base-10 logarithm of concentration in M.

-- ask Please tell me the measured pIC50 for CCOc1cc(C(C)(C)C)ccc1C1=N[C@@](C)(c2ccc(Cl)cc2)[C@@](C)(c2ccc(Cl)cc2)N1C(=O)N1CCN(CCCS(C)(=O)=O)CC1 ; system: SK-ES-1.
-- reply 4.60

---

System: NCI-H1437
ASSAY_NAME: COMPOUND A In Vitro Assay
Format: cell-based
CONDITION_DESCRIPTION: Homo sapiens, Lung, TP53 Mutant
VALUE_KIND: pIC50
Note: pIC50 values are expressed as the negative base-10 logarithm of concentration in M.

-- ask Recall and state the measured pIC50 for CCOc1cc(C(C)(C)C)ccc1C1=N[C@@](C)(c2ccc(Cl)cc2)[C@@](C)(c2ccc(Cl)cc2)N1C(=O)N1CCN(CCCS(C)(=O)=O)CC1 .
-- reply 5.00

---

Tested on: NCI-H187
ASSAY_NAME: COMPOUND A In Vitro Assay
Format: cell-based
CONDITION_DESCRIPTION: Homo sapiens, Lung, TP53 Mutant
VALUE_KIND: pIC50
Note: pIC50 values are expressed as the negative base-10 logarithm of concentration in M.

-- ask Recall and state the measured pIC50 for CCOc1cc(C(C)(C)C)ccc1C1=N[C@@](C)(c2ccc(Cl)cc2)[C@@](C)(c2ccc(Cl)cc2)N1C(=O)N1CCN(CCCS(C)(=O)=O)CC1 [COMPOUND A] .
-- reply 4.82
